Origin of values: ChEMBL document CHEMBL4813980

# assayed.target: DNA (cytosine-5)-methyltransferase 3A (Homo sapiens)
# test.summary: Mixed type inhibition of human DNMT3A using poly dl-dC as substrate
measured.parameter: Ki (µM)
Your answer is read as µM, so omit the unit and give the number.

# Ki lookup, item COc1ccc(C2=NN(C3CCCCCC3)C(=O)C2(C)C)cc1OCCCCOc1ccc(-c2nnn[nH]2)cc1 12.6

----------
# assayed.target: DNA (cytosine-5)-methyltransferase 3A (Homo sapiens)
# test.summary: Binding affinity to human DNMT3A catalytic domain assessed as inhibition of enzyme-mediated DNA methylation using poly dl-dC as substrate incubated for 30 mins
measured.parameter: Ki (µM)
Your answer is read as µM, so omit the unit and give the number.

In [3]: df
Out[3]:
                                test_smiles  assay_result
0  COc1ccc(C2=NN(C3CCCCCC3)C(=O)[C@@H]3CC=CC[C@H]23)cc1OCCCCOc1ccc(-c2nnn[nH]2)cc1          16.1

Now for another entry.
Param readout= Ki; system= DNA (cytosine-5)-methyltransferase 3A (Homo sapiens); entry= COc1ccc(C2=NN(C3CCCCCC3)C(=O)C2(C)C)cc1OCCCCOc1ccc(-c2nnn[nH]2)cc1 ; returns value. 21.6

----------
# assayed.target: DNA (cytosine-5)-methyltransferase 3A (Homo sapiens, UniProt Q9Y6K1)
# Sequence (Q9Y6K1 whole entry, looked up, the tested form may be a part): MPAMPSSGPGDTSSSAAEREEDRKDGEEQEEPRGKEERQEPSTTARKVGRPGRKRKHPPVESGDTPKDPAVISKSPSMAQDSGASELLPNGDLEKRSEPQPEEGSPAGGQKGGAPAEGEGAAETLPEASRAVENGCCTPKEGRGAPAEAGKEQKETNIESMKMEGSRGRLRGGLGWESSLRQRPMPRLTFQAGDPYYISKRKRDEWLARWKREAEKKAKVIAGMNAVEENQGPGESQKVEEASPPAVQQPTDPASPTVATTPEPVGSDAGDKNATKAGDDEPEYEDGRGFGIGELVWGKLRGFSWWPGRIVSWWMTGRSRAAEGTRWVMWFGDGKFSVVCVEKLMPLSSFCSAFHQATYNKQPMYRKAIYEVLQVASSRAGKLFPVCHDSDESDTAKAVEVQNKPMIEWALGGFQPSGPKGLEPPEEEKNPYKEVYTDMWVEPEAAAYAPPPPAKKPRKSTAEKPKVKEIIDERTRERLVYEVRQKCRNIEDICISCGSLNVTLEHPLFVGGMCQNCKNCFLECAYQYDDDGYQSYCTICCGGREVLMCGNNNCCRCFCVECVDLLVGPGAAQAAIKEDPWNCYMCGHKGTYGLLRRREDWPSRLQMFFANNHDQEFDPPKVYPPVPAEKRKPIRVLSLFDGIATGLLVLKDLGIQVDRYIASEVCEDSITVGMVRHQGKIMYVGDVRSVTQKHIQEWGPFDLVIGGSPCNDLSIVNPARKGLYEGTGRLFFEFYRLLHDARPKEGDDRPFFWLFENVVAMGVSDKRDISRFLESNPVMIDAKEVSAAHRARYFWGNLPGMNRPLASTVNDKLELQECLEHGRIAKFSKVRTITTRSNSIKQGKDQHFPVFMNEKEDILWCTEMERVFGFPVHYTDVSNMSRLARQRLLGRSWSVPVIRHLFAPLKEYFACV
# test.summary: Binding affinity to human DNMT3A catalytic domain assessed as inhibition of enzyme-mediated DNA methylation using 3H-AdoMet as substrate incubated for 30 mins
measured.parameter: pKi
Worth noting: pKi values are minus log10 of concentrations stated in mol/L.

>>> df
                                test_smiles  measured_parameter  assay_result
0  COc1ccc(C2=NN(C3CCCCCC3)C(=O)[C@@H]3CC=CC[C@H]23)cc1OCCCCOc1ccc(-c2nnn[nH]2)cc1                 pKi          4.86

Now for another entry.
# pKi lookup, item COc1ccc(C2=NN(C3CCCCCC3)C(=O)C2(C)C)cc1OCCCCOc1ccc(-c2nnn[nH]2)cc1 5.30

----------
# assayed.target: UniProtKB Q9Y6K1
# test.summary: Mixed type inhibition of human DNMT3A using AdoMet as substrate
measured.parameter: Ki (µM)
Your answer is read as µM, so omit the unit and give the number.

Param readout= Ki; system= UniProtKB Q9Y6K1; entry= COc1ccc(C2=NN(C3CCCCCC3)C(=O)C2(C)C)cc1OCCCCOc1ccc(-c2nnn[nH]2)cc1 ; returns value. 3.7

----------
# assayed.target: DNA (cytosine-5)-methyltransferase 3A (Homo sapiens)
# test.summary: Uncompetitive inhibition of human DNMT3A using poly dl-dC as substrate
measured.parameter: Ki (µM)
Your answer is read as µM, so omit the unit and give the number.

# Ki lookup, item COc1ccc(C2=NN(C3CCCCCC3)C(=O)[C@@H]3CC=CC[C@H]23)cc1OCCCCOc1ccc(-c2nnn[nH]2)cc1 11.4

----------
# assayed.target: DNA (cytosine-5)-methyltransferase 3A (Homo sapiens, UniProt Q9Y6K1)
# test.summary: Uncompetitive inhibition of human DNMT3A using AdoMet as substrate
measured.parameter: pKi
Worth noting: pKi values are minus log10 of concentrations stated in mol/L.

Param readout= pKi; system= DNA (cytosine-5)-methyltransferase 3A (Homo sapiens, UniProt Q9Y6K1); entry= COc1ccc(C2=NN(C3CCCCCC3)C(=O)[C@@H]3CC=CC[C@H]23)cc1OCCCCOc1ccc(-c2nnn[nH]2)cc1 ; returns value. 5.04
